Reference source for all entries: ChEMBL document CHEMBL1759865

Here's a batch of compounds along with measured IC50 for Acetylcholinesterase (Electrophorus electricus).

[
  {
    "COMPOUND": "Nc1c2c(nc3c1C(c1ccc([N+](=O)[O-])cc1)c1c(ccc4ccccc14)O3)CCCC2 (racemic)",
    "IC50, µM": 0.17
  },
  {
    "COMPOUND": "Nc1c2c(nc3c1C(c1ccc(O)cc1)c1c(ccc4ccccc14)O3)CCCC2 (racemic)",
    "IC50, µM": 0.007
  },
  {
    "COMPOUND": "COc1ccc(C2c3c(nc4c(c3N)CCCC4)Oc3ccc4ccccc4c32)cc1OC (racemic)",
    "IC50, µM": 0.026
  },
  {
    "COMPOUND": "COc1cc(C2c3c(nc4c(c3N)CCCC4)Oc3ccc4ccccc4c32)ccc1O (racemic)",
    "IC50, µM": 0.028
  },
  {
    "COMPOUND": "COc1cc(C2c3c(nc4c(c3N)CCC4)Oc3ccc4ccccc4c32)ccc1O (racemic)",
    "IC50, µM": 0.101
  },
  {
    "COMPOUND": "COc1ccccc1C1c2c(nc3c(c2N)CCCC3)Oc2ccc3ccccc3c21 (racemic)",
    "IC50, µM": 0.02
  },
  {
    "COMPOUND": "COc1cc(C2c3c(nc4c(c3N)CCCC4)Oc3ccc4ccccc4c32)cc(OC)c1OC (racemic)",
    "IC50, µM": 0.026
  },
  {
    "COMPOUND": "Cc1ccc(C2c3c(nc4c(c3N)CCCC4)Oc3ccc4ccccc4c32)cc1 (racemic)",
    "IC50, µM": 0.043
  },
  {
    "COMPOUND": "COc1cccc(C2c3c(nc4c(c3N)CCCC4)Oc3ccc4ccccc4c32)c1 (racemic)",
    "IC50, µM": 0.016
  },
  {
    "COMPOUND": "COc1ccc(C2c3c(nc4c(c3N)CCCC4)Oc3ccc4ccccc4c32)cc1 (racemic)",
    "IC50, µM": 0.018
  }
]
